This collection of values is drawn from patent US8008303B2.

System: HCV replicon cells Huh 9B
Format: cell-based
Conditions: concentration reducing total cell area by 50% relative to DMSO controls; methylene blue, absorbance 620 nm; 72 h incubation

{"smiles str": "Cc1ccc(NC(=O)c2ccc(N3CCOCC3)cc2)cc1-c1ccc(C(=O)Nc2ccc3[nH]c(C(F)(F)F)nc3c2)cc1", "measured target": "HCV replicon cells Huh 9B", "TD50": "** (** > 50 μM)"}
{"smiles str": "Cc1ccc(NC(=O)C2CCCCC2)cc1-c1ccc(C(=O)Nc2ccc(CN3CCOCC3)cc2)cc1", "measured target": "HCV replicon cells Huh 9B", "TD50": "* (* < 50 μM)"}
{"smiles str": "Cc1ccc(NC(=O)C2CCCCC2)cc1-c1ccc(C(=O)Nc2ccc(CCN3CCS(=O)(=O)CC3)cc2)cc1", "measured target": "HCV replicon cells Huh 9B", "TD50": "* (* < 50 μM)"}
{"smiles str": "Cc1ccc(NC(=O)c2ccc(N3CCOCC3)cc2)cc1-c1ccc(C(=O)NCc2cccc(Cl)c2)cc1", "measured target": "HCV replicon cells Huh 9B", "TD50": "** (** > 50 μM)"}
{"smiles str": "CN1CCN(Cc2ccc(NC(=O)c3ccc(-c4cc(NC(=O)C5CCCCC5)ccc4Cl)cc3)cc2)CC1", "measured target": "HCV replicon cells Huh 9B", "TD50": "* (* < 50 μM)"}
{"smiles str": "CN1CCN(C(=O)Nc2ccc(OC(F)(F)F)c(-c3ccc(C(=O)Nc4ccc(CN5CCN(S(C)(=O)=O)CC5)cc4)cc3)c2)CC1", "measured target": "HCV replicon cells Huh 9B", "TD50": "* (* < 50 μM)"}
{"smiles str": "Cc1ccc(C(=O)Nc2ccc(N3CCOCC3)cc2)cc1-c1ccc(NC(=O)c2ccc(CN(C)C)cc2)cc1", "measured target": "HCV replicon cells Huh 9B", "TD50": "* (* < 50 μM)"}

====

# IC50 per entry
Test system: HCV replicon cells Huh 9B
Assay: HCV replicon assay (luciferase readout)
Format: cell-based

{"smiles str": "Cc1ccc(C(=O)Nc2ccc(N3CCOCC3)cc2)cc1-c1ccc(C(=O)Nc2ccc3[nH]c(=O)[nH]c3c2)cc1", "IC50": "> 5000 nM"}
{"smiles str": "Cc1ccc(C(=O)Nc2ccc(N3CCOCC3)cc2)cc1-c1ccc(C(=O)Nc2cccnc2)cc1", "IC50": "1000 to 5000 nM"}
{"smiles str": "Cc1cc(NC(=O)c2ccc(C)c(-c3ccc(C(=O)Nc4ccc(CN5CCS(=O)(=O)CC5)cc4)cc3)c2)sn1", "IC50": "1000 to 5000 nM"}
{"smiles str": "CS(=O)(=O)N1CCN(Cc2ccc(NC(=O)c3ccc(-c4cc(C(=O)Nc5ccc(N6CCOCC6)cc5)ccc4OC(F)(F)F)cc3)cc2)CC1", "IC50": "< 1000 nM"}
{"smiles str": "Cc1ccc(C(=O)NCCN2CCCCC2)cc1-c1ccc(C(=O)Nc2ccc(CN3CCS(=O)(=O)CC3)cc2)cc1", "IC50": "1000 to 5000 nM"}
{"smiles str": "Cc1cc(C(=O)Nc2ccc(N3CCOCC3)cc2)ccc1-c1cccc(C(=O)Nc2ccc3cn[nH]c3c2)c1", "IC50": "< 1000 nM"}
{"smiles str": "Cc1ccc(C(=O)Nc2ccc(N3CCOCC3)cc2)cc1-c1ccc(C(=O)Nc2ccc(CN3CCCC3)cc2)cc1", "IC50": "> 5000 nM"}
